All values here come from the supplement of paper PMC9732359.

# assay: protein stability index of a GFP-peptide fusion (yeast GPS) (PSI 1-4); higher = more stable; sorted into four equal gates, so the index is relative within each strain
# measurementParameters: san1∆
Classify as follows. Reported protein stability index greater than or equal to 3: true. Reported protein stability index below: false.

# example entries with known answers
NHLDELQKKFVTKQSEL [SMC1]
false
QITKFPKYRDNLATWYH [SSN3]
false
GLFGNKPNNTANTGGGL [YGL172W/NUP49]
true
EVNREEAIGFIRGSNKF [SMC3]
false

-- ask Please check the record INSSNEALVQAFAFCIP [YCG1] and state if its protein stability index is at or above 3.
-- reply false

-- ask Please check the record ASVYPEYALPKTYNKLH [RPS26A] and state if its protein stability index is at or above 3.
-- reply false

-- ask Please check the record GIDPQDLKKLNLNVYIQ [CDC53] and state if its protein stability index is at or above 3.
-- reply false
